target: KCNT1 (KNa1.1, Slack) (Homo sapiens, UniProt Q5JUK3); test: KCNT1 patch clamp assay (SyncroPatch 384PE automated patch clamp); conditions: tetracycline inducible HEK-TREX cell line; perforated patch; step from −80 mV to 0 mV; room temperature; read-out: KCNT1-WT IC50
pIC50: −log10 of the molar value.
endpoint.label: pIC50

query: Which value of pIC50 has been reported for Cc1nn(C(C)C)cc1C(=O)N[C@@H](C)c1nc(-c2cccc(OC(F)(F)F)c2)no1 [Compound 100] in the records?
result: 4.70 to 6.00

query: Which value of pIC50 has been reported for CC(C)C(NC(=O)c1cc(C2CC2)nn1C)c1nc(-c2cccc(F)c2)no1 (stereo not shown) [Compound 45] in the records?
result: ≥ 6.00

query: Which value of pIC50 has been reported for Cc1nn(C(C)C)cc1C(=O)N[C@@H](C)c1nc(-c2ccc(F)cc2)no1 [Compound 90] in the records?
result: 4.70 to 6.00

query: Which value of pIC50 has been reported for COc1cccc(-c2noc([C@H](C)NC(=O)c3cc(C(F)(F)F)nn3C)n2)c1 [Compound 196] in the records?
result: ≥ 6.00

query: Which value of pIC50 has been reported for Cc1nn(CC(F)(F)F)cc1C(=O)N[C@@H](C)c1nc(-c2cccc(F)c2)no1 [Compound 164] in the records?
result: 4.70 to 6.00

query: Which value of pIC50 has been reported for Cn1nc(C2CC2)cc1C(=O)NC(C)(C)c1nc(-c2cccc(F)c2)no1 [Compound 50] in the records?
result: 4.70 to 6.00

query: Which value of pIC50 has been reported for Cn1nc(C(F)(F)F)cc1C(=O)NC(CC(=O)N1CC(O)C1)c1nc(-c2cccc(F)c2)no1 (stereo not shown) [Compound 124] in the records?
result: ≤ 4.70

query: Which value of pIC50 has been reported for CC(NC(=O)c1cc(C2CC2)nn1C)c1nc(-c2ccc(Cl)cc2)no1 (stereo not shown) [Compound 9] in the records?
result: ≥ 6.00

query: Which value of pIC50 has been reported for CC(=O)NC[C@H](NC(=O)c1cc(C(F)(F)F)nn1C)c1nc(-c2cccc(F)c2)no1 [Compound 134] in the records?
result: ≤ 4.70

query: Which value of pIC50 has been reported for C[C@H](NC(=O)c1cc(C2CC2)nn1C)c1nc(-c2cccc(F)c2)no1 (single isomer, unassigned) [Compound 94] in the records?
result: ≤ 4.70

query: Which value of pIC50 has been reported for COC(=O)CC(NC(=O)c1cc(C(F)(F)F)nn1C)c1nc(-c2cccc(F)c2)no1 (single isomer, unassigned) [Compound 125] in the records?
result: ≥ 6.00

query: Which value of pIC50 has been reported for CC(NC(=O)c1cc(C(F)(F)F)nn1C)c1nc(-c2cccc(S(N)(=O)=O)c2)no1 (stereo not shown) [Compound 180] in the records?
result: ≤ 4.70

query: Which value of pIC50 has been reported for COC(=O)NCC(NC(=O)c1cc(C(F)(F)F)nn1C)c1nc(-c2cccc(F)c2)no1 (stereo not shown) [Compound 168] in the records?
result: 4.70 to 6.00

query: Which value of pIC50 has been reported for C[C@H](NC(=O)OC(C)(C)C)c1nc(-c2ccnc(C3CC3)c2)no1 [Compound 288] in the records?
result: ≥ 6.00

query: Which value of pIC50 has been reported for C[C@H](NC(=O)c1ccnn1CC1CC1)c1nc(-c2ccnc(C3CC3)c2)no1 [Compound 310] in the records?
result: ≥ 6.00

query: Which value of pIC50 has been reported for Cc1nn(C(C)C)cc1C(=O)N[C@@H](C)c1nc(-c2ccc(F)c(F)c2)no1 [Compound 87] in the records?
result: 4.70 to 6.00

* * *

Target: KCNT1 (KNa1.1, Slack) (Homo sapiens, UniProt Q5JUK3)
Sequence (Q5JUK3 1-1230): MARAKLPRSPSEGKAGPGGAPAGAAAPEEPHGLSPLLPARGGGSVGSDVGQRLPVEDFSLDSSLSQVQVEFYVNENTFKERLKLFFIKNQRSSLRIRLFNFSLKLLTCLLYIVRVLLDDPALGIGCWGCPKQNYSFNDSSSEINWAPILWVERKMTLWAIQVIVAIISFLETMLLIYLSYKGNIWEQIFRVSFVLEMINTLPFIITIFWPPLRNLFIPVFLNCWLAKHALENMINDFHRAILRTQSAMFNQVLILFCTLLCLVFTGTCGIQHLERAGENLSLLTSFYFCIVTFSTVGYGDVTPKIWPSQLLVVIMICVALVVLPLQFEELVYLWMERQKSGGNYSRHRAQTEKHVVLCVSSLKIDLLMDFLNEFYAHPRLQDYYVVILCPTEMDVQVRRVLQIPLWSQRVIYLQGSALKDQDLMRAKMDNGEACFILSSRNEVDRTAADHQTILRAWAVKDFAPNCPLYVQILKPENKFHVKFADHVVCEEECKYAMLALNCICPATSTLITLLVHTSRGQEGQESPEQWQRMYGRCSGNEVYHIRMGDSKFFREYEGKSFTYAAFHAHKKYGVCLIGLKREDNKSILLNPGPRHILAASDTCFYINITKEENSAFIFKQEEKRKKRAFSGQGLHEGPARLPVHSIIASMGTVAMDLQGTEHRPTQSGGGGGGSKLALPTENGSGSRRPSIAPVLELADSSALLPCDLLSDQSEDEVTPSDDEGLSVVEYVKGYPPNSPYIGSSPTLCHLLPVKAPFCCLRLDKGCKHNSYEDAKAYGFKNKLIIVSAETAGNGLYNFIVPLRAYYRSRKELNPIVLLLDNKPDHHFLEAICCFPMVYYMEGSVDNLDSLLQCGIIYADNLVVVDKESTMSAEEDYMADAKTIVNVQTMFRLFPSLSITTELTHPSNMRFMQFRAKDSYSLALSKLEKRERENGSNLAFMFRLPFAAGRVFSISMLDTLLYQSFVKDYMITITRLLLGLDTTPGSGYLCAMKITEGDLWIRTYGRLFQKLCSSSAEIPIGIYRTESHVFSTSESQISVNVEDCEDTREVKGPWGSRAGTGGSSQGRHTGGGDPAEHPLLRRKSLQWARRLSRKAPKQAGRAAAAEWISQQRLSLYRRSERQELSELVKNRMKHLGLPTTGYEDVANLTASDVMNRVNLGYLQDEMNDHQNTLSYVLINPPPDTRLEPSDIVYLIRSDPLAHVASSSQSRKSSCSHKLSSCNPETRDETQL
Test: KCNT1 patch clamp assay (SyncroPatch 384PE automated patch clamp)
Conditions: tetracycline inducible HEK-TREX cell line; perforated patch; step from −80 mV to 0 mV; room temperature; read-out: KCNT1-WT IC50
endpoint.label: IC50

query: Please provide the recorded IC50 for Cn1nc(C(F)(F)F)cc1C(=O)NC1(c2nc(-c3cccc(F)c3)no2)CCOCC1 , tested on KCNT1 (KNa1.1, Slack) (Homo sapiens, UniProt Q5JUK3).
result: 1 to 20 µM

query: Please provide the recorded IC50 for Cn1nc(C(F)(F)F)cc1C(=O)NC1(c2nc(-c3cccc(F)c3)no2)CCOC1 (centres unmarked) [Compound 148] , tested on KCNT1 (KNa1.1, Slack) (Homo sapiens, UniProt Q5JUK3).
result: 1 to 20 µM

query: Please provide the recorded IC50 for CC(NC(=O)c1cc(C(F)(F)F)nn1C)c1nc(-c2cccc(C(=O)N(C)C)c2)no1 (centres unmarked) , tested on KCNT1 (KNa1.1, Slack) (Homo sapiens, UniProt Q5JUK3).
result: ≥ 20 µM

query: Please provide the recorded IC50 for COCc1nn(C)cc1C(=O)N[C@@H](C)c1nc(-c2cccc(F)c2)no1 , tested on KCNT1 (KNa1.1, Slack) (Homo sapiens, UniProt Q5JUK3).
result: ≥ 20 µM

query: Please provide the recorded IC50 for Cn1nc(C(F)(F)F)cc1C(=O)NC(CC(=O)NCCO)c1nc(-c2cccc(F)c2)no1 (single isomer, unassigned) , tested on KCNT1 (KNa1.1, Slack) (Homo sapiens, UniProt Q5JUK3).
result: ≥ 20 µM

query: Please provide the recorded IC50 for Cc1nn(C(C)C)cc1C(=O)NC(C)c1nc(-c2cccc(Cl)c2)no1 (centres unmarked) , tested on KCNT1 (KNa1.1, Slack) (Homo sapiens, UniProt Q5JUK3).
result: ≤ 1 µM

query: Please provide the recorded IC50 for Cc1nn(C(C)C)cc1C(=O)N[C@@H](C)c1nc(-c2ccc(Cl)c(F)c2)no1 , tested on KCNT1 (KNa1.1, Slack) (Homo sapiens, UniProt Q5JUK3).
result: ≤ 1 µM

query: Please provide the recorded IC50 for C[C@H](NC(=O)c1ccnn1CC1CC1)c1nc(-c2ccnc(C3CCCC3)c2)no1 , tested on KCNT1 (KNa1.1, Slack) (Homo sapiens, UniProt Q5JUK3).
result: ≤ 1 µM

* * *

molecular target: UniProt:Q5JUK3; assay: KCNT1 patch clamp assay (SyncroPatch 384PE automated patch clamp); conditions: tetracycline inducible HEK-TREX cell line; perforated patch; step from −80 mV to 0 mV; room temperature; read-out: KCNT1-WT IC50
Exercise: state measured IC50 for each of the compounds provided.

query: Which value of IC50 has been reported for Cc1nn(C)c(C(=O)N[C@@H](C)c2nc(-c3ccnc(C(F)(F)F)c3)no2)c1C in the records?
result: 1000 to 20000 nM

query: Which value of IC50 has been reported for Cc1nn(C(C)C)cc1C(=O)N[C@@H](C)c1nc(-c2cc(F)cc(F)c2)no1 in the records?
result: ≤ 1000 nM

query: Which value of IC50 has been reported for CC(NC(=O)c1cc(C(F)(F)F)nn1C)c1nc(-c2cccc(O)c2)no1 (stereo not shown) in the records?
result: 1000 to 20000 nM

query: Which value of IC50 has been reported for CC(NC(=O)c1cc(C(F)(F)F)nn1C)c1nc(-c2ccnc(N3CCCCC3)c2)no1 (single isomer, unassigned) in the records?
result: ≤ 1000 nM

query: Which value of IC50 has been reported for C[C@H](NC(=O)c1cc(C(F)(F)F)nn1CC(=O)N1CCCC1)c1nc(-c2ccnc(C(F)(F)F)c2)no1 in the records?
result: ≤ 1000 nM

query: Which value of IC50 has been reported for COCCC(NC(=O)c1cc(C(F)(F)F)nn1C)c1nc(-c2cccc(F)c2)no1 (stereo not shown) in the records?
result: ≤ 1000 nM

query: Which value of IC50 has been reported for CCOCc1cc(-c2noc([C@H](C)NC(=O)c3cc(C(F)(F)F)nn3C)n2)ccn1 in the records?
result: 1000 to 20000 nM

query: Which value of IC50 has been reported for Cc1nn(C(C)C)cc1C(=O)NC(C)c1nc(-c2cccc(OC(F)F)c2)no1 (stereo not shown) in the records?
result: 1000 to 20000 nM

query: Which value of IC50 has been reported for CC[C@H](NC(=O)c1cc(-c2ccccc2)nn1C)c1nc(-c2ccnc(C)c2)no1 in the records?
result: ≤ 1000 nM

query: Which value of IC50 has been reported for CC(C)COC(=O)N[C@@H](C)c1nc(-c2ccnc(C3CC3)c2)no1 in the records?
result: ≤ 1000 nM

query: Which value of IC50 has been reported for Cc1ccnc(-c2noc([C@H](C)NC(=O)OC(C)(C)C)n2)c1 in the records?
result: ≥ 20000 nM

query: Which value of IC50 has been reported for C[C@H](NC(=O)c1cc(C(F)(F)F)nn1C)c1nc(-c2cccc(C#N)c2)no1 in the records?
result: 1000 to 20000 nM

query: Which value of IC50 has been reported for CC(NC(=O)c1cc(C(F)(F)F)nn1C)c1nc(-c2ccc(Cl)cc2Cl)no1 (stereo not shown) in the records?
result: ≤ 1000 nM

query: Which value of IC50 has been reported for C[C@H](NC(=O)OC(C)(C)C)c1nc(-c2ccnc(OC3CC(F)(F)C3)c2)no1 in the records?
result: ≥ 20000 nM

query: Which value of IC50 has been reported for Cc1nn(C(C)C)cc1C(=O)NC(C)c1nc(-c2ccc(Cl)cc2)no1 (stereo not shown) in the records?
result: ≤ 1000 nM

query: Which value of IC50 has been reported for C[C@H](NC(=O)c1cc(C(F)(F)F)nn1C)c1nc(-c2ccnc(C#N)c2)no1 in the records?
result: 1000 to 20000 nM

Hey, just so you know, these numbers are from patent US20220259193A1.
